System: Streptococcus pneumoniae 1095
Format: cell-based
STATED CONDITIONS: S. pneumoniae 1095 (ermB); microtiter broth dilution
Description: The assay described herein includes a panel of bacterial strains assembled to include a variety of target pathogenic species, including representatives of macrolide resistance mechanisms that have been characterized. In many cases, both the macrolide-susceptible parent strain and the macrolide-resistant strain derived from it are available to provide a more accurate assessment of the compound's ability to circumvent the resistance mechanism. […]
// reported MIC S. pneumo. 1095 per item

Solved entries:
| MOLECULE | MEASURED QUANTITY | VALUE OBSERVED |
| --- | --- | --- |
| CC[C@H]1OC(=O)[C@H](C)C(=O)[C@H](C)[C@@H](O[C@@H]2O[C@H](C)C[C@H](N(C)C)[C@H]2O)[C@](C)(OC)C[C@@H](C)C(=O)[C@H](C)[C@H]2N(CC3(O)CN(Cc4ccc(-c5cncnc5)cc4)C3)C(=O)O[C@]12C [7.12] | MIC S. pneumo. 1095 | >64.00 µg/mL |
| CCC1OC(=O)C(C)C(=O)C(C)C(OC2OC(C)CC(N(C)C)C2O)C(C)(OC)CC(C)C(=O)C(C)C2N(CC3CCCN3C(=O)c3cc4ccccc4cn3)C(=O)OC12C (stereo not drawn) [12.09] | MIC S. pneumo. 1095 | 1 µg/mL |

Now examine the next entry.
Query: Data request, read-out MIC S. pneumo. 1095, for CCC1OC(=O)C(C)C(=O)C(C)C(OC2OC(C)CC(N(C)C)C2O)C(C)(OC)CC(C)C(=O)C(C)C2N(CC3CCCN3C(=O)c3cn4cccnc4n3)C(=O)OC12C (stereo not drawn) [10.43]
Result: <0.06 µg/mL
